// data source = patent US12371454B2

Molecular target: Kras and SOS1 (biotin-tagged human Kras loaded with GDP, His-tagged human SOS1) (Homo sapiens, UniProt P01116, G12D)
Construct: made in house; host or cells: E. coli (stated for Kras only)
Sequence (P01116 1-188 isoform P01116-2 G12D): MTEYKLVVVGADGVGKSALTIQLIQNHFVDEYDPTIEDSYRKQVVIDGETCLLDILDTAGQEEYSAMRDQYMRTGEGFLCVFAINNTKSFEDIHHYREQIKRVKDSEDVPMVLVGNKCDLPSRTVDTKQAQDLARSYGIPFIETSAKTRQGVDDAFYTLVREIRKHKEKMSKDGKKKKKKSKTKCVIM
Assay: Protein-protein interaction inhibition between Kras and SOS1 (KrasGl2D-SOS PPI) using AlphaScreen
Type: binding
Settings: AlphaScreen; biotin-tagged human Kras loaded with GDP, His-tagged human SOS1; read-out: KRAS G12D-SOS PPI IC50
pIC50: −log10 of the molar value. Positions of bridges follow the written chain, without caps; N, C: chain ends. Non-standard residues stand in square brackets, D forms with d. Residues, ends and D or L forms follow the SMILES beside them. *: point of attachment. hPhe(3-Cl-4-CF3) = N[C@@H](CCc1ccc(C(F)(F)F)c(Cl)c1)C(=O)O; hPhe(3-F,4-CF3) = N[C@@H](CCc1ccc(C(F)(F)F)c(F)c1)C(=O)O; 3Oxa8azabicyclo(3.2.1)octane = C1CC2COCC1N2*; NMePhe(2-CN) = CN[C@@H](Cc1ccccc1C#N)C(=O)O; NMePhe(4-Me) = CN[C@@H](Cc1ccc(C)cc1)C(=O)O; NMePhe(3-F) = CN[C@@H](Cc1cccc(F)c1)C(=O)O; Phe(3-I) = N[C@@H](Cc1cccc(I)c1)C(=O)O; NMeCha = CN[C@@H](CC1CCCCC1)C(=O)O; NMeChg = CN[C@H](C(=O)O)C1CCCCC1; NMeI = CC[C@H](C)[C@H](NC)C(=O)O; NMeD = CN[C@@H](CC(=O)O)C(=O)O; NMeL = CN[C@@H](CC(C)C)C(=O)O; NMeNva = CCC[C@H](NC)C(=O)O; NMeV = CN[C@H](C(=O)O)C(C)C; d(β3hA) = C[C@@H](N)CC(=O)O; NMeS = CN[C@@H](CO)C(=O)O; NMeA = CN[C@@H](C)C(=O)O; Nle = CCCC[C@H](N)C(=O)O; Piperidide = C1CCN(*)CC1; Pyrrolidide = C1CCN(*)C1; Ac5c = NC1(C(=O)O)CCCC1; Aze = O=C(O)[C@@H]1CCN1; CH2CMe2OH = CC(C)(O)C*; Aib = CC(C)(N)C(=O)O; Isopentyl = CC(C)CC*; Sar = CNCC(=O)O; Propyl = CCC*
If the reported pIC50 equals or exceeds 8, assign 1. If not, assign 0.

[in] Hi team, for CCCC[C@@H]1NC(=O)[C@H](Cc2cccc(I)c2)NC(=O)CN(C)C(=O)[C@H](Cc2ccc(C)cc2)N(C)C(=O)CN(C)C(=O)CN(C)C(=O)[C@H]([C@@H](C)CC)NC(=O)[C@H](CC(C)C)N(C)C(=O)C[C@@H](C(=O)N2CCCCC2)N(C)C(=O)[C@H](CC(C)C)NC(=O)[C@H](C)N(C)C1=O [Compound 232] ([NMeL]I[Sar][Sar][NMePhe(4-Me)][Sar][Phe(3-I)][Nle][NMeA]L[NMeD]-Piperidide; lactam N-11) , is the recorded pIC50 at or above 8?
[out] 0

[in] Hi team, for CC[C@H](C)[C@@H]1NC(=O)[C@H](CC(C)C)N(C)C(=O)C[C@@H](C(=O)N(C)C)N(C)C(=O)[C@H]([C@@H](C)CC)N(C)C(=O)C2(CCCC2)NC(=O)[C@H](Cc2cccc(F)c2)N(C)C(=O)[C@H](CCc2ccc(C(F)(F)F)c(Cl)c2)NC(=O)CN(C)C(=O)[C@H](Cc2ccc(C)cc2)N(C)C(=O)[C@@H]2CCN2C(=O)[C@H](C)N(C)C1=O [Compound 1000] ([NMeL]I[NMeA][Aze][NMePhe(4-Me)][Sar][hPhe(3-Cl-4-CF3)][NMePhe(3-F)][Ac5c][NMeI][NMeD]-NMe2; lactam N-11) , is the recorded pIC50 at or above 8?
[out] 1

[in] Hi team, for CCCOC[C@H]1C(=O)N(C)CC(=O)N[C@@H](CCc2ccc(C(F)(F)F)c(Cl)c2)C(=O)N2CCC[C@H]2C(=O)NC2(CCCC2)C(=O)N(C)[C@@H](C2CCCCC2)C(=O)N(C)[C@H](C(=O)N2CCCC2)CC(=O)N(C)[C@@H](CCC)C(=O)N[C@@H]([C@@H](C)CC)C(=O)N(C)CC(=O)N(C)CC(=O)N1C [Compound 2005] ([NMeNva]I[Sar][Sar][NMeS](Propyl)[Sar][hPhe(3-Cl-4-CF3)]P[Ac5c][NMeChg][NMeD]-Pyrrolidide; lactam N-11) , is the recorded pIC50 at or above 8?
[out] 1

[in] Hi team, for CC[C@H](C)[C@@H]1NC(=O)[C@H](CC(C)C)N(C)C(=O)C[C@@H](C)NC(=O)[C@H](C(C)C)N(C)C(=O)C2(CCCC2)NC(=O)[C@@H]2CCCN2C(=O)[C@H](CCc2ccc(C(F)(F)F)c(Cl)c2)NC(=O)CN(C)C(=O)[C@H](Cc2ccccc2C#N)N(C)C(=O)CN(C)C(=O)CN(C)C1=O [Compound 767] (cyclo([Ac5c][NMeV][d(β3hA)][NMeL]I[Sar][Sar][NMePhe(2-CN)][Sar][hPhe(3-Cl-4-CF3)]P)) , is the recorded pIC50 at or above 8?
[out] 0

[in] Hi team, for CC[C@H](C)[C@@H]1NC(=O)[C@H](CC(C)C)N(C)C(=O)C[C@@H](C(=O)N2CCCCC2)N(C)C(=O)[C@H](CC(C)C)N(C)C(=O)C(C)(C)NC(=O)[C@H](COCC(C)(C)O)N(C)C(=O)[C@H](CCc2ccc(C(F)(F)F)c(F)c2)NC(=O)CN(C)C(=O)[C@H](COCCC(C)C)N(C)C(=O)CN(C)C(=O)CN(C)C1=O [Compound 1532] ([NMeL]I[Sar][Sar][NMeS](Isopentyl)[Sar][hPhe(3-F,4-CF3)][NMeS](CH2CMe2OH)[Aib][NMeL][NMeD]-Piperidide; lactam N-11) , is the recorded pIC50 at or above 8?
[out] 1

[in] Hi team, for CC[C@H](C)[C@@H]1NC(=O)[C@H](CC(C)C)N(C)C(=O)C[C@@H](C(=O)N2C3CCC2COC3)N(C)C(=O)[C@H](C(C)C)N(C)C(=O)C2(CCCC2)NC(=O)[C@@H]2CCCN2C(=O)[C@H](CCc2ccc(C(F)(F)F)c(Cl)c2)NC(=O)CN(C)C(=O)[C@H](CC2CCCCC2)N(C)C(=O)CN(C)C(=O)CN(C)C1=O [Compound 1954] ([NMeL]I[Sar][Sar][NMeCha][Sar][hPhe(3-Cl-4-CF3)]P[Ac5c][NMeV][NMeD]-{3Oxa8azabicyclo(3.2.1)octane}; lactam N-11) , is the recorded pIC50 at or above 8?
[out] 1
